- Test system: Bacillus subtilis
- Measurement Description: Antibacterial activity against Bacillus subtilis ATCC 6633 after 16 to 48 hrs
- Format: functional
Test Readout: MIC (µM)

Illustrative cases are given below, each with its answer.
>  <Chemical String>
COC(=O)c1cc2cc(CCc3cc4c(o3)C(=O)c3c(O)c(OC)cc(OC)c3C4=O)c(O)c(O)c2c(=O)o1

>  <System Name>
Bacillus subtilis

>  <Numeric Value>
0.4

$$$$
>  <Chemical String>
NC[C@H]1O[C@H](O[C@H]2[C@H](O)[C@@H](O[C@H]3O[C@H](CO)[C@@H](O)[C@H](N)[C@H]3O)[C@H](N)C[C@@H]2N)[C@H](O)[C@@H](O)[C@@H]1O

>  <System Name>
Bacillus subtilis

>  <Numeric Value>
2

$$$$

[A] Cc1cc(=O)n2c3c(c4c(cc13)c(CO)cc(=O)n4C)OC2
[B] Cc1cc(=O)n(C)c2c(O)c3c(cc12)c(C)cc(=O)n3C
INPUT: // compare measured MIC between A and B ; output the lower one Kindly state the label of the option you pick.
OUTPUT: B
(B: 6 µM, A: 12 µM)

Where do the numbers come from? From ChEMBL document CHEMBL4414678.
